# Tested on: HORVS Montoya
# MEASUREMENT PROTOCOL: Safener seed treatment, pre-emergence herbicide, crop damage
# Type: in vivo, spring barley
# EXPERIMENTAL CONDITIONS: HER 15 g a.i./ha pre-emergence, isoxadifen-ethyl seed treatment 0.25 g a.i./kg seed, 21 DAT (Final)
Hi there, I'd appreciate the recorded HER effect + SAF for every entry that follows.
Give your result in % as a bare value.

Problem: Tell me HER effect + SAF reported for CC1(C(=O)NC2C=CC(C(=O)O)C2)CC(c2cc(F)cc(F)c2)=NO1 (stereo not shown)
Result: 40

Problem: Look up and state reported HER effect + SAF for COC(=O)C1C=CC(NC(=O)C2(C(F)(F)F)CC(c3cccc(F)c3)=NO2)C1 (stereo not shown)
Result: 5

Problem: Please report the measured HER effect + SAF for CSCCOC(=O)C1C=CC(NC(=O)C2(C(F)(F)F)CC(c3cc(F)cc(F)c3)=NO2)C1 (stereo not shown)
Result: 5

Problem: For the molecule C=CC1(C(=O)NC2C=CC(C(=O)OC)C2)CC(c2cc(F)cc(F)c2)=NO1 (stereo not shown) , give its reported HER effect + SAF.
Result: 5

* * *

# Tested on: HORVS Montoya
# MEASUREMENT PROTOCOL: Safener seed treatment, pre-emergence herbicide, crop damage
# Type: in vivo, spring barley
# EXPERIMENTAL CONDITIONS: HER 15 g a.i./ha pre-emergence, isoxadifen-ethyl 0.25 g a.i./kg seed, 21 DAT (Final)
RECORDED METRIC: Reduction [%] (%)
Use % as the unit, but write only the number.

Problem: Supply Reduction [%] value. Item: C=CC1(C(=O)NC2C=CC(C(=O)OC)C2)CC(c2cc(F)cc(F)c2)=NO1 (stereo not shown)
Result: 90

Problem: Tell me measured Reduction [%] for CSCCOC(=O)C1C=CC(NC(=O)C2(C(F)(F)F)CC(c3cc(F)cc(F)c3)=NO2)C1 (stereo not shown) please.
Result: 83

Problem: Kindly indicate its recorded Reduction [%]. Item: COC(=O)C1C=CC(NC(=O)C2(C(F)(F)F)CC(c3cccc(F)c3)=NO2)C1 (stereo not shown)
Result: 88

Problem: Entry CC1(C(=O)NC2C=CC(C(=O)O)C2)CC(c2cc(F)cc(F)c2)=NO1 (stereo not shown) needs its Reduction [%] filled in; supply it.
Result: 43

* * *

# Tested on: ZEAMA Abraxas
# MEASUREMENT PROTOCOL: Tank-mix post-emergence crop damage, greenhouse, visual assessment
# Assay type: in vivo, maize
# Parameters: key: % injury reduction: damage without minus with safener (0–100% scale)
# EXPERIMENTAL CONDITIONS: HER 32 g a.i./ha, isoxadifen-ethyl 100 g a.i./ha, Final
RECORDED METRIC: Reduction [Difference]

Problem: Read off the recorded Reduction [Difference] for CC1(C(=O)NC2C=CC(C(=O)OCCCl)C2)CC(c2cc(F)cc(F)c2)=NO1 (mixture of isomers)
Result: 24

Problem: Note down Reduction [Difference] recorded for COC(=O)C1C=CC(NC(=O)C2(C(F)(F)F)CC(c3cc(C)cc(F)c3)=NO2)C1 (mixture of isomers)
Result: 20

Problem: For COCCOC(=O)C1C=CC(NC(=O)C2(CCl)CC(c3cc(F)cc(F)c3)=NO2)C1 (stereo not shown) , write its Reduction [Difference].
Result: 50

Problem: Provide one value: measured Reduction [Difference] of C=CC1(C(=O)NC2C=C(C(=O)OCCOC)OC2)CC(c2cc(C)cc(F)c2)=NO1 (stereo not shown)
Result: 28

Problem: Report Reduction [Difference], nothing else, for this molecule: C=CC1(C(=O)NC2C=CC(C(=O)O)C2)CC(c2cc(F)cc(F)c2)=NO1 (stereo not shown)
Result: 80

Problem: Name the recorded Reduction [Difference] of the molecule listed here: C=CC1(C(=O)NC2CC=C(C(=O)OC)C2)CC(c2cc(F)cc(F)c2)=NO1 (mixture of isomers)
Result: 37

Problem: Tell us which Reduction [Difference] value is on record for C=CC1(C(=O)NC2COC(C(=O)OC)C2)CC(c2cc(C)cc(F)c2)=NO1 (mixture of isomers)
Result: 56

* * *

# System: ZEAMA Sileno
# MEASUREMENT PROTOCOL: Safener seed treatment, pre-emergence herbicide, crop damage
# Assay type: in vivo, maize
# EXPERIMENTAL CONDITIONS: HER 40 g a.i./ha pre-emergence, no safener, 14 DAT
# Method: For the safener seed treatment, sufficient seeds of the respective crops (spring wheat, TRZAS; spring barley, HORVS; maize, ZEAMA) were weighed into screw top glass bottles approximately twice the volume of the seeds. The specified safeners, formulated as wettable powder (WP) were weighed out so that the specified rates (g a.i./kg seed) would be obtained, dissolved in water (1 ml water per 10 g of seeds), and added to the seeds to produce a slurry. […]
RECORDED METRIC: HER effect (%)
Give just the numeric value; % need not be written.

Problem: Note down HER effect recorded for COC(=O)C1C=CC(NC(=O)C2(C(F)(F)F)CC(c3cccc(F)c3)=NO2)C1 (stereo not drawn)
Result: 40

Problem: Consider the compound COC(=O)C1OCCC1NC(=O)C1(C)CC(c2cc(F)cc(F)c2)=NO1 (stereo not drawn) and give its recorded HER effect.
Result: 75

Problem: In one line, give reported HER effect of the entry C=CC1(C(=O)NC2COC(C(=O)OC)C2)CC(c2cc(F)cc(F)c2)=NO1 (stereo not drawn) [Example 1.69] .
Result: 95

Problem: Please look at this compound and report its HER effect: C=CC1(C(=O)NC2COC(C(=O)OC)C2)CC(c2cc(F)cc(F)c2)=NO1 (stereo not drawn) [Example 1.70]
Result: 80

Problem: Could you please provide reported HER effect for C=CC1(C(=O)NC2COC(C(=O)OC)C2)CC(c2cc(F)cc(F)c2)=NO1 (mixture of isomers) [Example 1.68] ? Thanks!
Result: 93

Problem: Indicate its recorded HER effect; the compound in question is COC(=O)C1=CC(NC(=O)C2(C)CC(c3cc(F)cc(F)c3)=NO2)CC1 (stereo not drawn)
Result: 60

* * *

# Tested on: ZEAMA Sileno
# MEASUREMENT PROTOCOL: Tank-mix post-emergence crop damage, greenhouse, visual assessment
# Format: in vivo, maize
# Design: key: % points: herbicide damage without safener − damage with safener
# EXPERIMENTAL CONDITIONS: HER 32 g a.i./ha, isoxadifen-ethyl 100 g a.i./ha, Final
# Protocol: Seeds of crops (spring wheat, TRZAS; spring barley, HORVS; maize, ZEAMA) were placed in sandy loam soil in peat pots, covered with soil and cultivated in a greenhouse under good growth conditions. Two to three weeks after sowing, the test plants were treated at the 1 to 3-leaf stage. […]
With a cut-off of 60, any Reduction [Difference] strictly below it is called 1.0; any Reduction [Difference] meeting it or above is called 0.0.

Problem: Regarding C=CC1(C(=O)NC2COC(C(=O)OCCOC)C2)CC(c2cc(F)cc(F)c2)=NO1 (mixture of isomers) , kindly confirm whether its Reduction [Difference] is beneath 60.
Result: 1.0

Problem: Just wondering, is Reduction [Difference] of CC1(C(=O)NC2C=CC(C(=O)OCCSCc3ccccc3)C2)CC(c2cc(F)cc(F)c2)=NO1 (centres unmarked) below 60?
Result: 1.0

Problem: Is Reduction [Difference] of COCCOC(=O)C1C=CC(NC(=O)C2(C(F)(F)F)CC(c3cc(F)cc(C#N)c3)=NO2)C1 (centres unmarked) strictly below 60?
Result: 1.0

Problem: Is the reported Reduction [Difference] for CCOC(=O)C1C=CC(NC(=O)C2(C(F)(F)F)CC(c3ccccc3)=NO2)C1 (centres unmarked) strictly below 60?
Result: 0.0

Problem: Does the reported Reduction [Difference] of the following molecule sit strictly below 60? C=CCOC(=O)C1CC(NC(=O)C2(C)CC(c3cc(F)cc(F)c3)=NO2)CO1 (mixture of isomers)
Result: 1.0

Problem: Input CCOC(=O)C1=CCC(NC(=O)C2(C)CC(c3cccc(F)c3)=NO2)C1 (centres unmarked) ; condition: Reduction [Difference] strictly below 60. Does it hold?
Result: 1.0

Problem: Is Reduction [Difference] strictly under 60 for the entry COCCOC(=O)C1C=CC(NC(=O)C2(C)CC(c3cc(Cl)cc(C#N)c3)=NO2)C1 (centres unmarked) ?
Result: 1.0

Problem: Lab note: confirm whether the reported Reduction [Difference] for this molecule is below 60, equality not counting. molecule: C=CC1(C(=O)NC2COC(C(=O)OC)C2)CC(c2cc(F)cc(F)c2)=NO1 (centres unmarked)
Result: 0.0

* * *

# Test system: ZEAMA Sileno
# MEASUREMENT PROTOCOL: Safener seed treatment, pre-emergence herbicide, crop damage
# Assay type: in vivo, maize
# Design: key: % crop damage without safener minus % damage with safener
# EXPERIMENTAL CONDITIONS: HER 40 g a.i./ha pre-emergence, isoxadifen-ethyl 0.25 g a.i./kg seed, 14 DAT
So I've got a bunch of compounds here, and I need their Reduction [Difference] values.
Form: value (number only, do not type unit).

Problem: Determine its reported Reduction [Difference]: C=CC1(C(=O)NC2COC(C(=O)OC)C2)CC(c2cc(F)cc(F)c2)=NO1 (stereo not shown) [Example 1.69]
Result: 40

Problem: // Input: COC(=O)C1OCCC1NC(=O)C1(C)CC(c2cc(F)cc(F)c2)=NO1 (stereo not shown) [Example 1.92] . Output its Reduction [Difference] only.
Result: 70

Problem: Given C=CC1(C(=O)NC2COC(C(=O)OC)C2)CC(c2cc(F)cc(F)c2)=NO1 (stereo not shown) [Example 1.70] , respond with its Reduction [Difference].
Result: 35

Problem: Read the entry COC(=O)C1=CC(NC(=O)C2(C)CC(c3cc(F)cc(F)c3)=NO2)CC1 (stereo not shown) [Example 1.63] and write its reported Reduction [Difference].
Result: 30

Hello, the source for this data is patent US20230217926A1, in case you need it.
